# Tested On: Xanthine oxidase (from bovine milk, Sigma) (Bos taurus (Bovine), UniProt P80457)
# Sequence (P80457 whole entry): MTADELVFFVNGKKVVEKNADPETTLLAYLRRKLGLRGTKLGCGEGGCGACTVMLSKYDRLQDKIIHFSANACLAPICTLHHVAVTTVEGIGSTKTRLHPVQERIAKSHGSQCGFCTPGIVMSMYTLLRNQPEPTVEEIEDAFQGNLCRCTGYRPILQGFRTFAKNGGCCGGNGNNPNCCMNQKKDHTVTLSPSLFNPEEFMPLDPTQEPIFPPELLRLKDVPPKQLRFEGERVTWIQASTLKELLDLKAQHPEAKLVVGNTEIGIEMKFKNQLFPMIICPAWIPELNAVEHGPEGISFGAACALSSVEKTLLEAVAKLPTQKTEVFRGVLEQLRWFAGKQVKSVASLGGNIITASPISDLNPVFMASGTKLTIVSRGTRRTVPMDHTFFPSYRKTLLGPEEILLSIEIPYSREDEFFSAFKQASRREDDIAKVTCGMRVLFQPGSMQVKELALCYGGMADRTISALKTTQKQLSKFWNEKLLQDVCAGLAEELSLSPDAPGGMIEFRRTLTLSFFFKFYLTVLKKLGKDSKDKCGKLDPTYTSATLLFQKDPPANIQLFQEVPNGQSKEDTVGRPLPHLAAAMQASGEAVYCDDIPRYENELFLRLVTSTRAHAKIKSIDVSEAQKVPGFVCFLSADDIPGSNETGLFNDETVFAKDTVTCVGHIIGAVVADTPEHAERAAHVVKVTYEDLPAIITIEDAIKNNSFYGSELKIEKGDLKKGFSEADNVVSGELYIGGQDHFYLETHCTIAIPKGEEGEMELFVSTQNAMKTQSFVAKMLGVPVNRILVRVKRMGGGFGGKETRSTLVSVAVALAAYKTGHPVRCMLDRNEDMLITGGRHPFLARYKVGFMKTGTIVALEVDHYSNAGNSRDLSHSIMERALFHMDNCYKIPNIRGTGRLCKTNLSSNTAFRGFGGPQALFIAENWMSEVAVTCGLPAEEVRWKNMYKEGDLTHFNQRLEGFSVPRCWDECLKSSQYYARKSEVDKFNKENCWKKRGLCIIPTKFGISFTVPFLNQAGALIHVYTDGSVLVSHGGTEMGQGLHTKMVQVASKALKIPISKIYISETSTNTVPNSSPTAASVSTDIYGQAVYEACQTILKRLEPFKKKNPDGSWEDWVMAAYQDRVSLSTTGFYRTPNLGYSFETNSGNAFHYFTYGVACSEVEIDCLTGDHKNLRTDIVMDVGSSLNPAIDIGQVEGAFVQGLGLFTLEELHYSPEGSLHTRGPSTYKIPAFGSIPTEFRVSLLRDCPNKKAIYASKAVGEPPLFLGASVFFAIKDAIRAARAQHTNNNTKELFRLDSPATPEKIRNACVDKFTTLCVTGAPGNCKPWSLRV
# Assay Procedure: Xanthine oxidase inhibitory activity
# Format: biochemical
# Condition: 0.02 units/mL, xanthine 200 μM, 10 minutes at room temperature, absorbance at 290 nm
# Procedure: (1) Preparation of Test Compounds Test compounds were dissolved in DMSO (Wako) at 40 mM concentration and then diluted to intended concentrations with phosphate-buffered saline (PBS). (2) Method for Measurement Xanthine oxidase (from bovine milk, Sigma) was prepared with phosphate-buffered saline (PBS) at 0.02 units/mL, and then the solution was added to 96 well plates at 50 μL/well. […] Absorbance at 290 nm was measured using a microplate reader SpectraMax Plus 384 (Molecular device). […]
Readout Kind: pIC50
Give bare numbers, as −log10 of the molar value.

- Smiles Text: "N#Cc1cn(-c2ccc(C(=O)O)cc2)cc1-c1cccc(OCc2ccccc2F)c1"
  pIC50: 7.20
- Smiles Text: "CC(C)Cc1cn(-c2ccc(C(=O)O)cc2)cc1C#N"
  pIC50: 8.44
- Smiles Text: "N#Cc1cn(-c2ccc(C(=O)O)cc2)cc1-c1cccn1-c1ccccc1"
  pIC50: 8.00

Give pIC50 for each listed item.
1. N#Cc1cn(-c2ccc(C(=O)O)cc2)cc1-c1cccc(OCc2cccs2)c1
2. N#Cc1cn(-c2ccc(C(=O)O)cc2)cc1-c1ccc2ccccc2c1
3. Cc1ccccc1COc1ccccc1-c1cn(-c2ccc(C(=O)O)cc2)cc1C#N
4. COc1cn(-c2ccc(C(=O)O)cc2)cc1C#N
5. N#Cc1cn(-c2ccc(C(=O)O)cc2)cc1-c1cccc(OCc2cccc(Cl)c2)c1
6. N#Cc1cn(-c2ccc(C(=O)O)cc2)cc1-c1ccc(Oc2ccccc2)cc1

-- reply
7.38
7.59
7.08
7.95
7.15
7.28
